test system: Leishmania donovani strain 1S-CL2D axenic amastigotes; test: Leishmania donovani axenic amastigote in vitro drug sensitivity assay (resazurin); type: cell-based; conditions: Leishmania donovani; 72 hrs incubation; read-out: L. donovani axenic amastigotes IC50
Readout Name: pIC50
// pIC50 is dimensionless: -log10 of concentration (M)

Examples from the recorded data:
CC1OB(O)c2cc(NC(=O)c3ccccc3C(F)(F)F)ccc21 (centres unmarked) [compound 2]    6.08
CC1OB(O)c2cc(NC(=O)c3ccccc3Cl)ccc21 (centres unmarked) [compound 4]    6.34
COc1ccc(C(=O)Nc2ccc3c(c2)B(O)OC3C)cc1 (centres unmarked) [compound 5]    6.44

Can you look up the measured pIC50 of CC1OB(O)c2cc(NC(=O)c3ccc(F)cc3C(F)(F)F)ccc21 (centres unmarked) [compound 1] for me? 6.28

Now the same for CC1OB(O)c2cc(NC(=O)c3ccc(F)cc3)ccc21 (centres unmarked) [compound 3] 6.46

Where do the numbers come from? From patent US20110190235A1.
